# System: NCI-H23
# measurement_notes: NCI tumour cell line growth inhibition, 48 h
Activity calls are given as the source filed them. Cut-off read from the data, not from the text of the source: active = GI50 up to about 1.1 µM and inactive = higher.
Field: GI50. Provide a value for each of the molecules that follow.

input: Report GI50 for C[C@@H]1OC(=O)C[C@H]2CC(=O)N(CCC3CN(S(=O)(=O)C(F)(F)F)c4ccccc43)C[C@@H]21 (stereo not given in full) tested on NCI-H23.
output: > 100 µM (inactive)

input: Report GI50 for `COc1ccc(CNC2=Nc3ccncc3S(=O)(=O)N2c2ccccc2)cc1` tested on NCI-H23.
output: 35.5 µM (inactive)

input: Report GI50 for `S=C(c1c[nH]c2ccccc12)N1CCOCC1` tested on NCI-H23.
output: > 100 µM (inactive)

input: Report GI50 for Cc1nn(C(=O)c2ccc(Cl)cc2)c2c1C(c1ccc(Cl)cc1)SC(=N)N2 (stereo not given) tested on NCI-H23.
output: > 10 µM (inactive)

input: Report GI50 for CCCCCCCCCCCCCCCCOCC(CN(C)CCN(C)C)OCCCCCCCCCCCCCCCC (stereo not given) tested on NCI-H23.
output: > 100 µM (inactive)
